Target: rCL-11 (recombinant collectin-11, CL-11, CL-K1) (Homo sapiens)
Construct: no tag stated; homomeric disulfide-linked oligomers of trimers, monomer ~34 kDa reduced
Sequence (Q9BWP8 26-271): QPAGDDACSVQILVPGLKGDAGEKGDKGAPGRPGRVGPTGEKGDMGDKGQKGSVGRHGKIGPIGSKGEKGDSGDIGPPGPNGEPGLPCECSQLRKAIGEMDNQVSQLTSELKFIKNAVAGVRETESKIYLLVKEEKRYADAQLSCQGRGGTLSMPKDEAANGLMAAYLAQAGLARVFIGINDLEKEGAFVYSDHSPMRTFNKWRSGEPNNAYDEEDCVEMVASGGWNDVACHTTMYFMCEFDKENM
Assay: solid-phase competition ELISA, inhibition of rCL-11 binding to coated mannan
Settings: Ca2+ (TBS-Tw-Ca, 2.5 mM CaCl2), rCL-11 1 ug/ml, mannan-coated plate, room temperature

# compound, unit-descriptor, IC50
measured = [
    ("C[C@@H]1OC(O)[C@@H](O)[C@H](O)[C@@H]1O (stereo partly drawn) [L-fucose]", "mM", 36.5),
]
